We begin with a simple list: items and their reported growth inhibition.
- Experimental details: NCI Yeast Anticancer Drug Screen. Data for the rad50 strain (AID 155);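 further: 0% = growth of vehicle-only cultures of the same strain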
- Measurement context: S. cerevisiae rad50 strain growth inhibition; at 50.0 µM; active compounds read high
Compounds without any hit were thinned out: in the full panel of roughly 79,000, 15% have a hit.
Assay readout: growth inhibition (%)

>>> reading("Cc1cc(N)ccc1N=Nc1cc(S(=O)(=O)O)c2cccc(S(=O)(=O)O)c2c1")
-4.4
>>> reading("CO/N=C\\c1cc[n+](C)cc1")
11.7
>>> reading("O=C1c2cccc3c(Br)ccc(c23)C(=O)N1C1CCCCCCCCCCC1")
99.2
>>> reading("CSC(=S)N/N=C(\\c1ccccc1)c1ccccn1")
0.3
>>> reading("CN(C)c1ccc(C=C(C(=O)O)C(=O)O)cc1")
-5.2
>>> reading("O=C(O)C1OC1(c1ccccc1Cl)c1ccccc1Cl (stereo unspecified)")
7.3

* * *

- Experimental details: NCI Yeast Anticancer Drug Screen. Data for the mlh1 rad18 strain (AID 175)
- Measurement context: S. cerevisiae mlh1 rad18 strain growth inhibition; at 50.0 µM; active compounds read high
- Protocol: Growth inhibition of yeast strains with defined genetic alterations is measured as a screen for potential anti-cancer activity. Selected strains with alterations in DNA damage repair or cell cycle control were exposed to compounds and growth inhibition was measured relative to vehicle treated controls. The strain used in this assay is mlh1 rad18
About 79,000 compounds went through this panel and 15% of them were active in at least one assay; those are over-represented in the sample as a whole.
Assay readout: growth inhibition (%)

>>> reading("O=C(Nc1ccccc1)C(c1ccccc1)N(Nc1ccccc1Cl)c1ccccc1Cl (stereo not drawn)")
25
>>> reading("Clc1cc(OCC23CC4CC(CC(C4)C2)C3)nc(OCC23CC4CC(CC(C4)C2)C3)n1")
-13.4
>>> reading("C[n+]1ccccc1/C=C/c1cccc([N+](=O)[O-])c1")
1.9
>>> reading("CC(=O)c1cccc(F)c1C(C)c1ccc2ccccc2c1 (stereo not drawn)")
1.65
>>> reading("O=S1c2ccc(Cl)cc2CC(SSC2Cc3cc(Cl)ccc3S(=O)c3ccccc32)c2ccccc21 (stereo not drawn)")
-9
>>> reading("ClC1=CC(Cl)=C2N=C(N3CCCC3)N=C3N=C(N4CCCC4)N=C1N32")
4.55
>>> reading("COc1cc(OC)c(N=Nc2c(C)nc(N)nc2-c2ccccc2)cc1Cl")
23.9
>>> reading("N#C/C(=C\\c1cccc(Cl)c1)C(=O)c1ccccc1")
33.2
>>> reading("CNC(=O)OCc1c(COC(=O)NC)c(-c2ccc(F)cc2)n2c1CCC2")
52.6
>>> reading("Cc1ncc([N+](=O)[O-])n1CCNC(=O)CCCn1cnc([N+](=O)[O-])n1")
-38.9
>>> reading("Cc1ccc(C)c(NC(=S)Nc2ccccc2)c1")
1.7
>>> reading("CCC(C)C1NC(=S)N(c2ccccc2)C1=O (stereo not drawn)")
-30.4
>>> reading("O=C1C(=Cc2ccc([N+](=O)[O-])o2)C(=O)N(CCc2ccccc2)S(=O)(=O)N1CCc1ccccc1")
2.4
>>> reading("CC(=O)CCC(=O)C(=[N+]=[N-])S(=O)(=O)c1ccccc1")
-9.2
>>> reading("CCc1ccccc1NC(=O)CCl")
2.75
>>> reading("CC(=O)Nc1ccc(C(F)(F)F)cc1")
13.2
>>> reading("CC1=C(C(=O)Nc2ccccc2C)C(c2ccccc2)C(C(=O)Nc2ccccc2C)=C(C)N1")
7.1
>>> reading("CCCCCOCC(O)CNCCNCC(O)COCCCCC (stereo not drawn)")
0
>>> reading("CC(=O)Nc1nc(Cl)c2ncn(C3OC(COC(=O)c4ccccc4)CC3OC(=O)c3ccccc3)c2n1 (stereo not drawn)")
4.5
>>> reading("COc1cc(C(Nc2ccccn2)c2cc3c(cc2O)OCO3)cc(OC)c1O (stereo not drawn)")
24.2
>>> reading("NC(=O)C(CC(=O)O)NC(=O)c1ccccc1 (stereo not drawn)")
10.1
>>> reading("CCOC(=O)c1c[nH]c(=S)n(C)c1=O")
2.1
>>> reading("N#Cc1cc([N+](=O)[O-])ccc1NC(=O)C(=O)Nn1c(=S)[nH]c2ccccc2c1=O")
5.9
